Where these numbers come from: patent US7186803B2

# Subject of test: human VR3 A+B− (Homo sapiens, UniProt Q9HBA0, F526I)
# Construct: expressed in transfected cells; host or cells: Xenopus laevis oocytes injected with in vitro transcribed cRNA
# Sequence (Q9HBA0 whole entry F526I): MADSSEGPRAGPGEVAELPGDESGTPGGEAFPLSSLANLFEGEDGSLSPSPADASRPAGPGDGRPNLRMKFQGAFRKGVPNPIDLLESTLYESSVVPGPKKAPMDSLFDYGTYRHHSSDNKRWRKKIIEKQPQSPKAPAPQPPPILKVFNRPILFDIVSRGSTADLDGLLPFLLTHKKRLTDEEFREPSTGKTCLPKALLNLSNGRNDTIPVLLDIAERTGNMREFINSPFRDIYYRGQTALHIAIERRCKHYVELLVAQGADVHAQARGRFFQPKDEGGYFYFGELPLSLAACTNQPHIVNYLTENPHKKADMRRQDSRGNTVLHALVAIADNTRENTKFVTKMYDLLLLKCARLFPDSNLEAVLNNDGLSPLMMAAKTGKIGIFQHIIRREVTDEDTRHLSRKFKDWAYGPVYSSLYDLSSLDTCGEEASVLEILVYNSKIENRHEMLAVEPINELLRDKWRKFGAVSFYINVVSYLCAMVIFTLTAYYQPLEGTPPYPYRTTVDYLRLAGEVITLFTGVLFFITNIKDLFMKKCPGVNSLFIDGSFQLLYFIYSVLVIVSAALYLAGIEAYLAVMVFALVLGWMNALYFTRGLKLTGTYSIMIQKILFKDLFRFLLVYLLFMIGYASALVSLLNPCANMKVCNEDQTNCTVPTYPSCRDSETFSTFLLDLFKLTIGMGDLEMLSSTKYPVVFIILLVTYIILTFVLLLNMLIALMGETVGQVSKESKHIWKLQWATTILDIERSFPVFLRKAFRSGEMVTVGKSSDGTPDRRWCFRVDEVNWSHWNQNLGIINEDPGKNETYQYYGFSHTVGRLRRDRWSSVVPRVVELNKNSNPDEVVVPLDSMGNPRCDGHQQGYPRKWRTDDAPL
# Test details: Two-electrode voltage clamp of Xenopus oocytes injected with VR3 A+B− cRNA, challenged with ligands
# Type: cell-based
# Design: key: NE: no effect
# Test parameters: 10 uM; VR3 A+B− 3.25–4 ng injected per oocyte (also 0.4 ng)
Measure name: Effect of stimulus on membrane conductance vs control oocytes

>>> result("CCCCC[C@H](O)CC(=O)CCc1ccc(O)c(OC)c1 [Gingerol]")
"NE: n = 3 (n = 1 0.4 ng)"
>>> result("CCCCCCCC/C=C\\CCCCCCCC(=O)NCc1ccc(O)c(OC)c1 [Olvanil]")
"NE: n = 3 (n = 1 0.4 ng)"
>>> result("COc1ccccc1O [Guiaicol]")
"NE: n = 3 (n = 1 0.4 ng)"
